// aptazyme ON/OFF ratio lookup, one value per entry
B1: Pistol ribozyme (parent)
chain: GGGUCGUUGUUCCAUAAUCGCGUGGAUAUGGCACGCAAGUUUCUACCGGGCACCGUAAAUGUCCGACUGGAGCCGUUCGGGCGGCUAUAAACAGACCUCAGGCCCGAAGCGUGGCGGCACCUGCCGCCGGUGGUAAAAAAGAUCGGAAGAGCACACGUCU

Variants of: B1
Test Details: aptazyme ON/OFF ratio, guanine; higher = stronger switching; co-transcriptional cleavage with and without guanine

Variant Notation: U7A G9U U10G U11A C13U
aptazyme ON/OFF ratio: 1.05
//
Variant Notation: U7G U8C U10A C12G C13A
aptazyme ON/OFF ratio: 1.22
//
Variant Notation: U7A G9C U10A U11A C13G
aptazyme ON/OFF ratio: 1.03
//
Variant Notation: U7G U8A G9C U10C C12U C13G
aptazyme ON/OFF ratio: 1.01
//
Variant Notation: U7G U8A U11C C12G C13A
aptazyme ON/OFF ratio: 1.22
//
Variant Notation: U7C U8C G9C C12U C13U
aptazyme ON/OFF ratio: 1.14
//
Variant Notation: U7C U8C U10A U11A C13U
aptazyme ON/OFF ratio: 1.29
//
Variant Notation: U7A U8G G9U U10G C12G C13A
aptazyme ON/OFF ratio: 1.37
//
Variant Notation: U7C U8A U11C C12G C13G
aptazyme ON/OFF ratio: 1.26
//
Variant Notation: U8A G9U U10A C12A C13U
aptazyme ON/OFF ratio: 1.36
//
Variant Notation: U7G U8C G9A U10C U11A C12U C13A
aptazyme ON/OFF ratio: 1.08
//
Variant Notation: U8C G9C U10G U11C C13U
aptazyme ON/OFF ratio: 1.2
//
Variant Notation: U7G U8A U10G U11C C13U
aptazyme ON/OFF ratio: 1.5
//
Variant Notation: U8C G9U U10C U11G C13A
aptazyme ON/OFF ratio: 1.23
//
Variant Notation: U7C G9C U10G U11C C12A C13A
aptazyme ON/OFF ratio: 1.12
//
Variant Notation: U7A U8G G9C U10G U11C C12G C13A
aptazyme ON/OFF ratio: 1.27
//
Variant Notation: U7C U11G C12A C13A
aptazyme ON/OFF ratio: 1.16
//
Variant Notation: U8A G9C U11A C12U
aptazyme ON/OFF ratio: 1.22
//
Variant Notation: U7A U8A G9A U10C U11G C13U
aptazyme ON/OFF ratio: 1.09
//
Variant Notation: U8G U11C C12A C13A
aptazyme ON/OFF ratio: 1.23
//
Variant Notation: U8A G9A U10A U11A C12G C13A
aptazyme ON/OFF ratio: 1.29
//
Variant Notation: U7G U8G G9A U10G C13G
aptazyme ON/OFF ratio: 1.11
//
Variant Notation: G9U U10G U11C C12A
aptazyme ON/OFF ratio: 1.69
//
Variant Notation: U7A U8G U10G U11A C12A C13U
aptazyme ON/OFF ratio: 1.34
//
Variant Notation: U7A U8G G9U U10C U11G C12A C13G
aptazyme ON/OFF ratio: 1.41
//
Variant Notation: U7C G9U U10A U11A C12A C13G
aptazyme ON/OFF ratio: 1.1
//
Variant Notation: U7A U8G U10C U11C C12G C13U
aptazyme ON/OFF ratio: 1.19
//
Variant Notation: U7G U8G G9A U10G U11C C12A C13U
aptazyme ON/OFF ratio: 1.27
//
Variant Notation: U10G C13U
aptazyme ON/OFF ratio: 1.5
//
Variant Notation: U8G G9U U10A C13U
aptazyme ON/OFF ratio: 1.09
//
Variant Notation: U7G G9U U10G C13A
aptazyme ON/OFF ratio: 1.39
//
Variant Notation: U7A G9A U11G C12U
aptazyme ON/OFF ratio: 2.19
//
Variant Notation: U7A U8C G9C U10C U11A C12G
aptazyme ON/OFF ratio: 1.02
//
Variant Notation: U7G U8G U10A U11A C12U
aptazyme ON/OFF ratio: 1.25
//
Variant Notation: U7C U8A G9A U11A C12U
aptazyme ON/OFF ratio: 1.25
//
Variant Notation: U8G G9C U11A C12U C13G
aptazyme ON/OFF ratio: 1.06
//
Variant Notation: U8A C12U
aptazyme ON/OFF ratio: 1.62
//
Variant Notation: U7G U8G G9C U10A C12U C13G
aptazyme ON/OFF ratio: 1.03
//
Variant Notation: U7G U8G U10C U11A C12U C13U
aptazyme ON/OFF ratio: 1.31
//
Variant Notation: U7G U8A G9A U10G U11C C12G C13A
aptazyme ON/OFF ratio: 1.1
//
Variant Notation: U7G U8G G9A U11A C12A
aptazyme ON/OFF ratio: 1.38
//
Variant Notation: U7G G9U U10C U11G C12G C13G
aptazyme ON/OFF ratio: 1.12
//
Variant Notation: U7C G9A U10A U11A C12G C13G
aptazyme ON/OFF ratio: 1.22
//
Variant Notation: U7G G9U U11C C12A
aptazyme ON/OFF ratio: 1.61
//
Variant Notation: U7C U8A G9C U10A C12G C13G
aptazyme ON/OFF ratio: 1.21
//
Variant Notation: U7G U8A G9A U11A C12A C13U
aptazyme ON/OFF ratio: 1.21
